Target: Histone deacetylase 1 (Homo sapiens, UniProt Q13547)
Sequence (Q13547 whole entry, the tested form may be a part): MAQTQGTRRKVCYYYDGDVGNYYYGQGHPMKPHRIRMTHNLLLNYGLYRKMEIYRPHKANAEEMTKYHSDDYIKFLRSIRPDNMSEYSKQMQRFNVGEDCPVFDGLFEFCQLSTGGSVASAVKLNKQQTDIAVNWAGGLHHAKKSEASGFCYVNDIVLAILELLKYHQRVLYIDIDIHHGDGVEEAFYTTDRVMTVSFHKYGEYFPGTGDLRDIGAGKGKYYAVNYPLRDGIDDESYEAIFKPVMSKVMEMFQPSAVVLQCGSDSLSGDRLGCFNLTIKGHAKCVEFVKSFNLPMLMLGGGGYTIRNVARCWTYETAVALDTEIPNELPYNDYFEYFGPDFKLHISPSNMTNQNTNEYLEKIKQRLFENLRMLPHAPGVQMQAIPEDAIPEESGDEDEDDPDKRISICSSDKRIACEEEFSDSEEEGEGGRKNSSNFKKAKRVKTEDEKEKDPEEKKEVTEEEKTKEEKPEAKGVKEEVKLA
Experiment: Inhibition of recombinant human C-terminal FLAG-His-tagged HDAC1 (1 to 482 residues) expressed in Sf21 cells using RHK-K(Ac)-AMC as substrate incubated for 60 mins by fluorimetry analysis
QUANTITY KIND: IC50 (µM)

Observe how each entry below is paired with its result.
| COMPOUND STRING | IC50, µM |
| --- | --- |
| CC(C)c1cc(C(=O)N2Cc3ccc(NC(=O)CCCCC(=O)NO)cc3C2)c(O)cc1O | 6.88 |
| CC(C)c1cc(C(=O)N2Cc3ccc(NC(=O)CCCCCCCC(=O)NO)cc3C2)c(O)cc1O | 1.07 |

A. CC(C)c1cc(C(=O)N2Cc3ccc(NC(=O)CCCCCCC(=O)NO)cc3C2)c(O)cc1O
B. CC(C)c1cc(C(=O)N2Cc3ccc(NC(=O)CCCCCC(=O)NO)cc3C2)c(O)cc1O
C. CC(C)c1cc(C(=O)N2Cc3ccc(NC(=O)CCCCCCCCC(=O)NO)cc3C2)c(O)cc1O
Put the entries in order of IC50, starting with the largest number. Use the labels to give the requested order.
B, C, A
(B: 3.81 µM, C: 1.88 µM, A: 0.554 µM)

* * *

For reference, pIC50 measured on Histone deacetylase 3 (Homo sapiens):
pIC50: −log10 of the molar value.
QUANTITY KIND: pIC50

Observe how each entry below is paired with its result.
| COMPOUND STRING | TGT | MEASUREMENT |
| --- | --- | --- |
| CC(C)c1cc(C(=O)N2Cc3ccc(NC(=O)CCCCCC(=O)NO)cc3C2)c(O)cc1O | Histone deacetylase 3 (Homo sapiens) | 5.66 |
| CC(C)c1cc(C(=O)N2Cc3ccc(NC(=O)CCCC(=O)NO)cc3C2)c(O)cc1O | Histone deacetylase 3 (Homo sapiens) | 5.36 |
| CC(C)c1cc(C(=O)N2Cc3ccc(NCc4ccc(C(=O)NO)cc4)cc3C2)c(O)cc1O | Histone deacetylase 3 (Homo sapiens) | 5.01 |

1. CC(C)c1cc(C(=O)N2Cc3ccc(NC(=O)CCCCCCCCC(=O)NO)cc3C2)c(O)cc1O
2. CC(C)c1cc(C(=O)N2Cc3ccc(NC(=O)CCCCC(=O)NO)cc3C2)c(O)cc1O
// compare: 1 vs 2 , metric pIC50, want the smaller Answer format: the label of the selected item.
2
(2: 5.55, 1: 5.88)

* * *

Target: Heat shock protein HSP 90-alpha (Homo sapiens)
QUANTITY KIND: IC50 (nM)

Observe how each entry below is paired with its result.
| COMPOUND STRING | TGT | QUANTITY KIND | UNITS TEXT | MEASUREMENT |
| --- | --- | --- | --- | --- |
| CC(C)c1cc(C(=O)N2Cc3ccc(/C=C/C(=O)NO)cc3C2)c(O)cc1O | Heat shock protein HSP 90-alpha (Homo sapiens) | IC50 | nM | 104 |
| CC(C)c1cc(C(=O)N2Cc3ccc(NC(=O)CCCC(=O)NO)cc3C2)c(O)cc1O | Heat shock protein HSP 90-alpha (Homo sapiens) | IC50 | nM | 136 |

a. CC(C)c1cc(C(=O)N2Cc3ccc(NC(=O)CCC(=O)NO)cc3C2)c(O)cc1O
b. CC(C)c1cc(C(=O)N2Cc3ccc(NC(=O)CCCCCCCCC(=O)NO)cc3C2)c(O)cc1O
Which record would sort first by descending IC50, a or b ? Answer format: the label of the selected item.
a
(a: 123 nM, b: 46.8 nM)
